B1: OR4K15 (parent)
chain: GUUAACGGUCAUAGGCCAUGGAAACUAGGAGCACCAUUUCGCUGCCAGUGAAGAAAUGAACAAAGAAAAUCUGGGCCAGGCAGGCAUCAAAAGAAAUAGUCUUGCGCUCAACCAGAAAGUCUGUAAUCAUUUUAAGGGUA

Variants of: B1
Test name: self-cleavage, relative activity (ratio to wild type); higher = more cleavage; in vitro, sequencing; the parent is a self-cleaving ribozyme
Measurement type: self-cleavage
Would you mind answering with just the numeric figure?

Supply recorded self-cleavage for A64G A96U here. 0.91

Supply recorded self-cleavage for U39G A96U here. 1.58

Supply recorded self-cleavage for A68U U120A here. 1.48

Supply recorded self-cleavage for A30G G137U here. 0.71

Supply recorded self-cleavage for U9A A59G here. 1.12

Supply recorded self-cleavage for A117G G138C here. 2.13

Supply recorded self-cleavage for A36C A62G here. 2

Supply recorded self-cleavage for A18G A69U here. 1.94

Supply recorded self-cleavage for U127C U130A here. 0.35

Supply recorded self-cleavage for A96U U139C here. 1.15

Supply recorded self-cleavage for U38A A47U here. 1.31

Supply recorded self-cleavage for C32U A69G here. 1.21
